- Tested on: 922993-354-T-J3-PDC complex spheroids, viability
- Experiment: Anticancer human tumor 922993-354-T-J3-PDC patient-derived endometrial carcinoma cell line growth inhibition [GQUAD]
- Experimental parameters: second compound 0.0316 µM; first compound 10 µM; hits give low values
- Excerpt: DNA G-quadruplex Stabilizer Agents in Combinations in Complex Spheroids A high-throughput screen of multi-cell type tumor spheroids was designed to identify active combinations of DNA G-quadruplex stabilizer agents and targeted small molecules. […] Compounds. […] If the clinical Cmax for an agent had not been determined, the highest concentration tested was 10 microM. […]
Below: a set of entries, each annotated with reported viability, T/C.

Compound	viability, T/C [%]
C#Cc1c(F)ccc2cc(O)cc(-c3ncc4c(N5CC6CCC(C5)N6)nc(OCC56CCCN5CC(F)C6)nc4c3F)c12 (centres undefined) + CN(C)c1ccc(Nc2c3ccc(NC(=O)CCN4CCCC4)cc3nc3cc(NC(=O)CCN4CCCC4)ccc23)cc1	81.5
COc1ccc([C@@H](O)c2cc(-c3ncnc4cc(N5CCOCC5)ccc34)c(F)cc2Cl)nn1 + Cc1cnc(CNC(=O)c2c(=O)c3ccc(N4CCCN(C)CC4)nc3n3c2sc2ccccc23)cn1	42.9
CC(=O)O[C@H]1C(=O)[C@@]2(C)[C@H]([C@H](OC(=O)c3ccccc3)[C@]3(O)C[C@H](OC(=O)[C@H](O)[C@@H](NC(=O)c4ccccc4)c4ccccc4)C(C)=C1C3(C)C)[C@]1(OC(C)=O)CO[C@@H]1C[C@@H]2O + Cc1[nH]c2ccc(F)cc2c1-c1nc2c3cccnc3c3ncccc3c2[nH]1	40.5
C=CC(=O)N1CCN(c2nc(=O)n(-c3c(C)ccnc3C(C)C)c3nc(-c4c(O)cccc4F)c(F)cc23)C(C)C1 (centres undefined) + CN(C)c1ccc(Nc2c3ccc(NC(=O)CCN4CCCC4)cc3nc3cc(NC(=O)CCN4CCCC4)ccc23)cc1	119

* * *

- System: 922993-354-T-J3-PDC complex spheroids, viability
- Experiment: Anticancer human tumor 922993-354-T-J3-PDC cell line growth inhibition [GQUAD];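 note: spheroids exposed to compounds for seven days; 100% = DMSO vehicle control viability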
- Experimental parameters: second compound 0.316 µM; first compound 10 µM; hits give low values
The following molecules are shown together with reported viability, T/C values.

Molecule	viability, T/C / %
CCCS(=O)(=O)Nc1ccc(F)c(C(=O)c2c[nH]c3ncc(-c4ccc(Cl)cc4)cc23)c1F + Cc1cnc(CNC(=O)c2c(=O)c3ccc(N4CCCN(C)CC4)nc3n3c2sc2ccccc23)cn1	46.4
COc1cc(C2c3cc4c(cc3C(OC3OC5COC(C)OC5C(O)C3O)C3COC(=O)C23)OCO4)cc(OC)c1O (stereo not given) + CN(C)c1ccc(Nc2c3ccc(NC(=O)CCN4CCCC4)cc3nc3cc(NC(=O)CCN4CCCC4)ccc23)cc1	46.9
COc1cccc2c1C(=O)c1c(O)c3c(c(O)c1C2=O)CC(O)(C(=O)CO)CC3OC1CC(N)C(O)C(C)O1 (stereo not given) + CN(C)c1ccc(Nc2c3ccc(NC(=O)CCN4CCCC4)cc3nc3cc(NC(=O)CCN4CCCC4)ccc23)cc1	31.9
Nc1ccn(C2OC(CO)C(O)C2(F)F)c(=O)n1 (stereo not given) + Cc1[nH]c2ccc(F)cc2c1-c1nc2c3cccnc3c3ncccc3c2[nH]1	22.1
C=CC(=O)N1CCN(c2nc(=O)n(-c3c(C)ccnc3C(C)C)c3nc(-c4c(O)cccc4F)c(F)cc23)C(C)C1 (stereo not given) + Cc1[nH]c2ccc(F)cc2c1-c1nc2c3cccnc3c3ncccc3c2[nH]1	113

* * *

- Tested on: 922993-354-T-J3-PDC complex spheroids, viability
- Experiment: Anticancer human tumor 922993-354-T-J3-PDC cell line growth inhibition [GQUAD]; active = viability on the fitted dose curve at most 10% of control; inactive = the rest;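 note: spheroids exposed to compounds for seven days; 100% = DMSO vehicle control viability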
- Experimental parameters: second compound 0.0316 µM; first compound 10 µM
Outcomes: T (active), F (inactive)

Compound	Assigned category
COc1ncnc(C2CC2)c1-c1ncc2cnn(Cc3ccc(-c4nc(C(F)(F)F)cn4C(C)C)cc3)c2n1 + Cc1[nH]c2ccc(F)cc2c1-c1nc2c3cccnc3c3ncccc3c2[nH]1	F
O=C(NO)c1cnc(N2CCN(S(=O)(=O)c3ccc4ccccc4c3)CC2)nc1 + Cc1[nH]c2ccc(F)cc2c1-c1nc2c3cccnc3c3ncccc3c2[nH]1	T
COc1ccc([C@@H](O)c2cc(-c3ncnc4cc(N5CCOCC5)ccc34)c(F)cc2Cl)nn1 + CN(C)c1ccc(Nc2c3ccc(NC(=O)CCN4CCCC4)cc3nc3cc(NC(=O)CCN4CCCC4)ccc23)cc1	F
COc1cc(C2c3cc4c(cc3C(OC3OC5COC(C)OC5C(O)C3O)C3COC(=O)C23)OCO4)cc(OC)c1O (stereo unspecified) + Cc1[nH]c2ccc(F)cc2c1-c1nc2c3cccnc3c3ncccc3c2[nH]1	F
COc1cccc2c1C(=O)c1c(O)c3c(c(O)c1C2=O)CC(O)(C(=O)CO)CC3OC1CC(N)C(O)C(C)O1 (stereo unspecified) + Cc1[nH]c2ccc(F)cc2c1-c1nc2c3cccnc3c3ncccc3c2[nH]1	F
CC1COCCN1c1cc(C2(S(C)(=N)=O)CC2)nc(-c2ccnc3[nH]ccc23)n1 (stereo unspecified) + Cc1cnc(CNC(=O)c2c(=O)c3ccc(N4CCCN(C)CC4)nc3n3c2sc2ccccc23)cn1	F
CC(=O)O[C@H]1C(=O)[C@@]2(C)[C@H]([C@H](OC(=O)c3ccccc3)[C@]3(O)C[C@H](OC(=O)[C@H](O)[C@@H](NC(=O)c4ccccc4)c4ccccc4)C(C)=C1C3(C)C)[C@]1(OC(C)=O)CO[C@@H]1C[C@@H]2O + Cc1cnc(CNC(=O)c2c(=O)c3ccc(N4CCCN(C)CC4)nc3n3c2sc2ccccc23)cn1	F
C#Cc1c(F)ccc2cc(O)cc(-c3ncc4c(N5CC6CCC(C5)N6)nc(OCC56CCCN5CC(F)C6)nc4c3F)c12 (stereo unspecified) + Cc1[nH]c2ccc(F)cc2c1-c1nc2c3cccnc3c3ncccc3c2[nH]1	F
C=CCn1c(=O)c2cnc(Nc3ccc(N4CCN(C)CC4)cc3)nc2n1-c1cccc(C(C)(C)O)n1 + Cc1cnc(CNC(=O)c2c(=O)c3ccc(N4CCCN(C)CC4)nc3n3c2sc2ccccc23)cn1	F
Cc1cccc(N(C)C(=O)C2C(O)CCN2c2nc(C)cc(C(F)(F)F)c2C#N)c1 (stereo unspecified) + CN(C)c1ccc(Nc2c3ccc(NC(=O)CCN4CCCC4)cc3nc3cc(NC(=O)CCN4CCCC4)ccc23)cc1	F
C#Cc1c(F)ccc2cc(O)cc(-c3ncc4c(N5CC6CCC(C5)N6)nc(OCC56CCCN5CC(F)C6)nc4c3F)c12 (stereo unspecified) + Cc1cnc(CNC(=O)c2c(=O)c3ccc(N4CCCN(C)CC4)nc3n3c2sc2ccccc23)cn1	F
CCCS(=O)(=O)Nc1ccc(F)c(C(=O)c2c[nH]c3ncc(-c4ccc(Cl)cc4)cc23)c1F + Cc1[nH]c2ccc(F)cc2c1-c1nc2c3cccnc3c3ncccc3c2[nH]1	F
O=c1[nH]cc(F)c(=O)[nH]1 + Cc1[nH]c2ccc(F)cc2c1-c1nc2c3cccnc3c3ncccc3c2[nH]1	F
CC1COCCN1c1cc(C2(O)CC3CCC(C2)O3)c2cnn(-c3ccn[nH]3)c2n1 (stereo unspecified) + CN(C)c1ccc(Nc2c3ccc(NC(=O)CCN4CCCC4)cc3nc3cc(NC(=O)CCN4CCCC4)ccc23)cc1	F
Cc1cccc(N(C)C(=O)C2C(O)CCN2c2nc(C)cc(C(F)(F)F)c2C#N)c1 (stereo unspecified) + Cc1[nH]c2ccc(F)cc2c1-c1nc2c3cccnc3c3ncccc3c2[nH]1	F
Cc1cccc(N(C)C(=O)C2C(O)CCN2c2nc(C)cc(C(F)(F)F)c2C#N)c1 (stereo unspecified) + Cc1cnc(CNC(=O)c2c(=O)c3ccc(N4CCCN(C)CC4)nc3n3c2sc2ccccc23)cn1	F
CC1COCCN1c1cc(C2(S(C)(=N)=O)CC2)nc(-c2ccnc3[nH]ccc23)n1 (stereo unspecified) + CN(C)c1ccc(Nc2c3ccc(NC(=O)CCN4CCCC4)cc3nc3cc(NC(=O)CCN4CCCC4)ccc23)cc1	F
CC1COCCN1c1cc(-c2ccnn2C)c2ccnc(-c3ccn[nH]3)c2n1 (stereo unspecified) + Cc1[nH]c2ccc(F)cc2c1-c1nc2c3cccnc3c3ncccc3c2[nH]1	F
COc1cccc2c1C(=O)c1c(O)c3c(c(O)c1C2=O)CC(O)(C(=O)CO)CC3OC1CC(N)C(O)C(C)O1 (stereo unspecified) + Cc1cnc(CNC(=O)c2c(=O)c3ccc(N4CCCN(C)CC4)nc3n3c2sc2ccccc23)cn1	F
CC1COCCN1c1cc(C2(S(C)(=N)=O)CC2)nc(-c2ccnc3[nH]ccc23)n1 (stereo unspecified) + Cc1[nH]c2ccc(F)cc2c1-c1nc2c3cccnc3c3ncccc3c2[nH]1	F
CC(C)(O)C1CCC(Nc2ccc3ncc(-c4cccc(C(F)(F)F)c4)n3n2)CC1 (stereo unspecified) + CN(C)c1ccc(Nc2c3ccc(NC(=O)CCN4CCCC4)cc3nc3cc(NC(=O)CCN4CCCC4)ccc23)cc1	F

Recorded values, source PubChem BioAssay AID2060489.
